Tested on: SK-MEL-28
Assay: Cytotoxicity against human SK-MEL-28 cells assessed as cell growth inhibition incubated for 48 hrs by MTT assay
Type: functional, cell-based
Conditions: SK-MEL-28, 48 h
METRIC_NAME: IC50 (µM)
The reply should contain only the number, in µM.

Query IC50 on SK-MEL-28 for CC[C@@]1(O)C(=O)OCc2c1cc1n(c2=O)Cc2cc3ccccc3nc2-1 [CAMPTOTHECIN] 2.26

Query IC50 on SK-MEL-28 for COc1ccc(C/N=C2\NC(=O)/C(=C3\CCNC(=O)c4[nH]c5ccccc5c43)S2)cc1 9.68

Query IC50 on SK-MEL-28 for O=C1N/C(=N\CCc2ccccc2)S/C1=C1/CCNC(=O)c2[nH]ccc21 12.3

Query IC50 on SK-MEL-28 for COc1cccc2c1C(=O)c1c(O)c3c(c(O)c1C2=O)C[C@@](O)(C(=O)CO)C[C@@H]3O[C@H]1C[C@H](N)[C@H](O)[C@H](C)O1 [DOXORUBICIN] 1.64

Data provenance: ChEMBL document CHEMBL5137032
